Task for the reader: assign each of the following sequences its reported Signal in the intervertebral disc (IVD), Average.
Tested on: cartilage (IVD, knee / synovial joints)
Assay: Whole body autoradiography (WBA) of radiolabeled cartilage homing peptides (Example 21)
Type: in vivo, Female Harlan athymic nude mice
Settings: 24 hr after 100 nmol radiolabeled peptide; percentage of blood
Protocol: This example illustrates peptide homing to cartilage mice 5 minutes to 48 hours after administration of a radiolabeled peptide. Signal from the radiolabeled peptides was found in all types of cartilage at each time point examined. Each peptide was radiolabeled by methylating […] as described in EXAMPLE 2. As such, the peptide may contain methyl or dimethyl lysines and a methylated or dimethylated amino terminus. […]
One number for each entry, in %.

Study these solved cases before continuing.
// query Quick one: give measured Signal in the intervertebral disc (IVD), Average for GSSERDCIRHLQRCRENRDCCSRRCSRRGTNPERRCR [SEQ ID NO: 109]
// result 4367

// query Quick one: give measured Signal in the intervertebral disc (IVD), Average for GSVRIPVSCRHSGQCLRPCRDAGIVIRFGRCMNGRCDCTPR [SEQ ID NO: 110]
// result 1327

// query Quick one: give measured Signal in the intervertebral disc (IVD), Average for GSGDCLPHLRRCRENNDCCSRRCRRRGANPERRCR [SEQ ID NO: 200]
// result 3542

We next turn to a different sequence, shown below.
// query Quick one: give measured Signal in the intervertebral disc (IVD), Average for GSQVQTNVRCQGGSCASVCRREIGVAAGRCINGRCVCYRN [SEQ ID NO: 114]
// result 191

----------
Tested on: cartilage (IVD, knee / synovial joints)
Experiment: Whole body autoradiography (WBA) of radiolabeled cartilage homing peptides (Example 21)
Assay type: in vivo, Female Harlan athymic nude mice
Conditions: 3 hr after 100 nmol radiolabeled peptide; percentage of blood
Task for the reader: assign each of the following sequences its reported Signal in the intervertebral disc (IVD), Average.
One number for each entry, in %.

Study these solved cases before continuing.
// query Quick one: give measured Signal in the intervertebral disc (IVD), Average for GSSERDCIRHLQRCRENRDCCSRRCSRRGTNPERRCR [SEQ ID NO: 109]
// result 2758

// query Quick one: give measured Signal in the intervertebral disc (IVD), Average for GSQVQTNVRCQGGSCASVCRREIGVAAGRCINGRCVCYRN [SEQ ID NO: 114]
// result 1075

// query Quick one: give measured Signal in the intervertebral disc (IVD), Average for GSGDCLPHLRRCRENNDCCSRRCRRRGANPERRCR [SEQ ID NO: 200]
// result 1809

We next turn to a different sequence, shown below.
// query Quick one: give measured Signal in the intervertebral disc (IVD), Average for GSVRIPVSCRHSGQCLRPCRDAGIVIRFGRCMNGRCDCTPR [SEQ ID NO: 110]
// result 2374

----------
Test system: cartilage (IVD, knee / synovial joints)
Test: Whole body autoradiography (WBA) of radiolabeled cartilage homing peptides (Example 21)
Type: in vivo, Female Harlan athymic nude mice
Settings: 100 nmol radiolabeled peptide
readout: Change of signal in IVD and joint cartilage between 3 and 24 hours

// query Quick one: give measured Change of signal in IVD and joint cartilage between 3 and 24 hours for GSGDCLPHLRRCRENNDCCSRRCRRRGANPERRCR [SEQ ID NO: 200]
// result maintained or increased

// query Quick one: give measured Change of signal in IVD and joint cartilage between 3 and 24 hours for GSSERDCIRHLQRCRENRDCCSRRCSRRGTNPERRCR [SEQ ID NO: 109]
// result maintained or increased
